Assay System: T1, RXFP1 (LGR7) receptor, on stably transfected HEK-293T cells (UniProt Q9HBX9 1-757, limits assumed)
T1 sequence (looked up): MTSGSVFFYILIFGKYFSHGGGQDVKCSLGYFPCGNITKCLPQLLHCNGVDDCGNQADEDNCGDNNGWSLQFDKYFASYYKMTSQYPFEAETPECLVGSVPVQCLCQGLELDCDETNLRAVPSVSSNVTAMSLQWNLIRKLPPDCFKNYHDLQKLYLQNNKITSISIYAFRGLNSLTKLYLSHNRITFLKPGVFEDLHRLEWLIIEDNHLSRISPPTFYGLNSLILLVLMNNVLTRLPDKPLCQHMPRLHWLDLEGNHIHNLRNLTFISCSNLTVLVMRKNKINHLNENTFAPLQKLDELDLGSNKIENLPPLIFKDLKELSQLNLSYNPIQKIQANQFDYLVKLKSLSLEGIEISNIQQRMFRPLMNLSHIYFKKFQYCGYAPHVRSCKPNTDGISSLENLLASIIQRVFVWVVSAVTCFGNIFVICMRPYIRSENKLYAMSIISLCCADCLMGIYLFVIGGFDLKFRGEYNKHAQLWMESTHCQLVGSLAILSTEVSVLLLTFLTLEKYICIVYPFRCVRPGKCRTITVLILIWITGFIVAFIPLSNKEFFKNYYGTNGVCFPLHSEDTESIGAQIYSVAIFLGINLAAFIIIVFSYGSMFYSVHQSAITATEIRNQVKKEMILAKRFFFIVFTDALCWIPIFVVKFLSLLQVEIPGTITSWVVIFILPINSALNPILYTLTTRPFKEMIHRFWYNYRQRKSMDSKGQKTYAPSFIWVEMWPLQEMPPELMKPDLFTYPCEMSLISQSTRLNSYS
Experiment Summary: cell-based or functional assay
Ends that are not written are not given here.
cAMP pEC50 values, listed per item

• Ac-VIKLSGRELVRAQAAISGMSTWSKRSL-NH2 [I20A (AcB7-33 C11.23S)] = < 5 log M

Sure, the documented cAMP pEC50 for VIKLSGRELVRAQIAISGMSTWS-NH2 [B7-29 C11.23S] is < 5 log M

Sure, the documented cAMP pEC50 for VIKLSGRELVKAQIAISGMSTWSKRSL-NH2 [B7-33 C11.23S R17K] is < 5 log M
